ASSAY SYSTEM: Cytochrome P450 3A4 (Homo sapiens) (UniProt P08684)
Sequence (P08684 whole entry, looked up): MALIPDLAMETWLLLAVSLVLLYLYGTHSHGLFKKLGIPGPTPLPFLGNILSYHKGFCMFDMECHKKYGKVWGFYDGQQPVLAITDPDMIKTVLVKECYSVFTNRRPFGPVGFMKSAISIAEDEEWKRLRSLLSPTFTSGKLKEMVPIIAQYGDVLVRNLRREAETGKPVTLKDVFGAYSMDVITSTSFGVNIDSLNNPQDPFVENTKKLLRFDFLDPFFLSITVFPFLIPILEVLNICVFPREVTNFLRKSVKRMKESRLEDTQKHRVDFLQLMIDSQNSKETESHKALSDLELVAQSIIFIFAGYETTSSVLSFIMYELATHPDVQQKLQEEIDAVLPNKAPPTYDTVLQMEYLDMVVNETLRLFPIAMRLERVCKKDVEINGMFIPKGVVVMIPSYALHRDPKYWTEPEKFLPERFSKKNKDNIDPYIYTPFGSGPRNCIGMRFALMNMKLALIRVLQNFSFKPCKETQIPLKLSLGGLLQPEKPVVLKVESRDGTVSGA
ASSAY PROTOCOL: qHTS Assay for Inhibitors and Substrates of Cytochrome P450 3A4 (AID 884); note: nearly all actives have a fitted effect of over 50% in size; note: potency is the fitted concentration of half-maximal effect
ASSAY CONDITIONS: recombinant CYP3A4, Luciferin-PPXE luminescence; series mostly up to 57.1 µM
Records with an inconclusive call do not appear. The source made the active and inactive calls. Calls come from the whole dose curve; as a rule, active = well fitted inhibition curve with a large enough effect; inconclusive = small, poorly fitted or top-dose-only effect; inactive = no such curve, though single readings can be large or run the other way.
METRIC: Potency

Some molecules with known Potency results, for comparison:
C[C@H]1[C@H]2CC[C@H]3C4CC=C5C[C@@H](N(C)C)CC[C@]5(C)C4CC[C@]23CN1C (some centres undefined) : inactive
CN(C)C(=O)[C@@H]1C[C@H]1[C@@H](NC(=O)OCc1ccccc1)c1ccccc1 : 10 µM (active)
COC(=O)c1cccc(C23CC4(C2)[C@H](CN(Cc2ccc(-c5ccccc5)cc2)[C@@H]4c2ccccc2)C3c2ccc(Cl)nc2)c1 (some centres undefined) : inactive
COc1ccc2c(=O)ccoc2c1 : inactive
COC(=O)c1ccc(C(NC(=O)OCc2ccccc2)/C(=C/[C@@H](C)C(=O)Nc2ccc(OC)cc2)c2cccnc2)cc1 (some centres undefined) : 1 µM (active)

Fill in the recorded Potency for this molecule, with Cytochrome P450 3A4 (Homo sapiens) (UniProt P08684) as test system: CNC(=O)C1(C)C=CCN1C(=O)c1ccccc1 (centres undefined)
inactive

###

ASSAY SYSTEM: Cytochrome P450 2D6 (Homo sapiens) (UniProt P10635)
Sequence (P10635 whole entry, looked up): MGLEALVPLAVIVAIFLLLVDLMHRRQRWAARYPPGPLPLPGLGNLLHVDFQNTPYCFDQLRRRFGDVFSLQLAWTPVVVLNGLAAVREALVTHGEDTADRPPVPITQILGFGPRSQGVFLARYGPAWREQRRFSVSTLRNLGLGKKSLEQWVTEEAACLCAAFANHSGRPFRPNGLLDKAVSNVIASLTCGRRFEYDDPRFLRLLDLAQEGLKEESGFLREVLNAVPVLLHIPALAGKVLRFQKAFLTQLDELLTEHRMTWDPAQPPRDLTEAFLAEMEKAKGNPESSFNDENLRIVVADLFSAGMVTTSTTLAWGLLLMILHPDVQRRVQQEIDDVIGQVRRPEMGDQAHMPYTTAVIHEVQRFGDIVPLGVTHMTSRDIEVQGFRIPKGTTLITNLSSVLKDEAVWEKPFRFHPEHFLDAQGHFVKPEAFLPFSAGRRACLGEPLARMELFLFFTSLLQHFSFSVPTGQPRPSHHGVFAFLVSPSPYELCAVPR
ASSAY PROTOCOL: qHTS Assay for Inhibitors and Substrates of Cytochrome P450 2D6 (AID 891); note: nearly all actives have a fitted effect of over 60% in size
ASSAY CONDITIONS: recombinant CYP2D6, luciferin-ME EGE luminescence; series mostly up to 11.4 µM
Records with an inconclusive call do not appear. Calls of active or inactive are those of the source. Calls come from the whole dose curve; as a rule, active = well fitted inhibition curve with a large enough effect; inconclusive = small, poorly fitted or top-dose-only effect; inactive = no such curve, though single readings can be large or run the other way.
Form entry, call: pick from active, inactive

Per the records of this test, what outcome belongs to COC(=O)C1=C(C)N(Cc2ccccc2)[C@]23O[C@](C(=O)OC)(C(=O)N2C1c1ccccc1)C(C(=O)OC)=C3C(=O)OC (stereo partly drawn) ?
inactive

Query: recorded result category for COC(c1ccccc1)C(C)C(OC)C(C)C(OC)C(C)C(C)=O (stereo not drawn) in this test
inactive

Kindly provide the recorded test outcome for the following compound: COC(=O)NC(c1ccccc1)[C@@]1(C(=O)OC)CCCC1=O (stereo partly drawn)
inactive

Any idea what this test logged for CCc1cc2c(nc1CC)CCN(CC/C(C)=N/O[C@@H](C)CN1CCCc3nc(C)c(C)cc31)C2 ?
active

I would be grateful if you could indicate the recorded call for CCCCCCC(=O)Cc1cc(OC)c(OC)cc1C=C(C(=O)OCC)C(=O)OCC .
inactive

Look up the recorded call for CC(C)=CCC/C(C)=C/C=C/C1=CC2(C)CC1(C)C(/C=C(\C)CCC=C(C)C)CC2=O (stereo not drawn) in this test.
inactive

Check the results log: what was the call for COC(=O)C1=C(C)N(Cc2ccccc2)C2=C(C(C)=O)C[C@@](O)(C(=O)OC)C(=O)N2C1c1ccccc1 (stereo partly drawn) ?
inactive

Could you kindly confirm the outcome this assay logged for CC1(C)OC(C(O)(c2cccc3c2oc2ccccc23)c2cccc3c2oc2ccccc23)C(C(O)(c2cccc3c2oc2ccccc23)c2cccc3c2oc2ccccc23)O1 (stereo not drawn) ?
inactive

For this compound, state the assay outcome: COc1ccc(/C=C/NC(=O)c2ccc(OC)cc2)cc1
inactive

Outcome logged for COC(=O)NC(c1cccc(F)c1)C(C(C)=O)C(=O)OC (stereo not drawn) in this assay:
inactive

Please state the recorded outcome for this compound: CC1CN2C(CCC(C)C2c2ccc(Br)cc2)C(=O)O1 (stereo not drawn)
inactive

Assay outcome for C[C@@]12CCC3c4ccc(OC5C=CC(c6ccccc6)OC5CO)cc4CCC3C1CCC2=O (stereo partly drawn) : what was it?
inactive

Status in this test for COC(=O)N(/C=C/c1ccc(OC)cc1)CCc1ccc(OC)c(OC)c1 ?
inactive

GET /call?item= CO/N=C(/C)CCC(=O)OC[C@@H]1O[C@H](C#Cc2ccccc2)C=C[C@@H]1Oc1ccc(C)cc1 returns the recorded outcome of this test.
inactive

# outcome recorded in this test, key = CCCCCCC#CC1C=CC(Oc2ccc(C=O)cc2)C(CO)O1 (stereo not drawn)
inactive

So what was the verdict on C=CCOC(=O)C(C(C)=O)C(NC(=O)OC)c1cccs1 (stereo not drawn) in this test?
inactive

Look up the recorded call for CO[C@@H]1COC(=O)[C@@H](C)NC(=O)C/C=C\[C@@H](C)[C@H](NS(=O)(=O)c2ccc(C)cc2)COC(=O)[C@H](C)NC(=O)C/C=C\[C@H]1C in this test.
inactive

Could you kindly confirm the outcome this assay logged for CC(=O)OC[C@H]1O[C@@H](O/N=C(\C)CCC(=O)OC[C@@H]2O[C@H](C#Cc3ccccc3)C=C[C@@H]2Oc2ccc(C)cc2)[C@H](OC(C)=O)[C@@H](OC(C)=O)[C@H]1OC(C)=O ?
active

Lab log entry: COC(=O)NC(/C(C(=O)OC)=C(\C)NCc1ccccc1)c1ccc(F)cc1 (stereo not drawn) — outcome as called in the assay?
active

Field: outcome | Entry: COC(=O)NC(c1ccccc1)[C@]1(C(C)=O)CCCC1=O (stereo partly drawn)
inactive

Please share the test call associated with CCCCCCC#CC1C=CC(OC(=O)OCC)C(COC(=O)OCC)O1 (stereo not drawn) .
inactive

Outcome? COC(=O)NC(c1ccc2ccccc2c1)C(C(C)=O)C(=O)OC (stereo not drawn)
inactive

What was the test verdict on O=C(O)C1Cc2c([nH]c3ccccc23)C(c2ccccc2)N1 (stereo not drawn) ?
active

Could you kindly confirm the outcome this assay logged for COC(=O)NC(c1cccc(C)c1)[C@@]1(C(=O)OC)CCCC1=O (stereo partly drawn) ?
inactive

Lab log entry: CCOC(=O)N/N=C1/C[C@@H](O)[C@@H](O)[C@@H]2[C@@H]3C(=O)N(C4CCCCC4)C(=O)[C@H]3CC[C@@H]12 — outcome as called in the assay?
inactive

# fetch the recorded call for CCCCCCC/C=C/C1=CC2(C)CC1(C)C(CCCCCCC)CC2=O (stereo not drawn) here
inactive

Recorded test outcome, item CC(C)C(=O)NC(=O)C1CCCN1C(=O)/C=C/c1ccccc1 (stereo not drawn)
inactive

Call for entry CCOC(=O)OCC1OC(C#Cc2ccc(Br)cc2)C=CC1OC(=O)OCC (stereo not drawn) :
inactive

Called result for COc1ccc(/C=C/C2=CC3(C)CC2(C)C(c2ccc(OC)cc2)CC3=O)cc1 (stereo not drawn)
inactive

How did this test come out for COC(=O)NC(CC(C)=O)c1cccc(C)c1 (stereo not drawn) ?
inactive

What was the test verdict on C=CCOC(=O)C(C(C)=O)C(NC(=O)OC)c1cccc(C)c1 (stereo not drawn) ?
inactive

Can you look up the reported call for OCC1OC(C#Cc2ccccc2)C=CC1O (stereo not drawn) for me?
inactive

Could you check what this test reported for CC(C)=CCC/C(C)=C/CO/N=C1/C[C@@H](O)[C@@H](O)[C@@H]2[C@@H]3C(=O)N(C[C@@H]4CCCO4)C(=O)[C@H]3CC[C@@H]12 ?
inactive

What did the test return for CCOC(=O)N/N=C1/C[C@@H](O)[C@@H](O)[C@@H]2[C@@H]3C(=O)N(Cc4ccccc4)C(=O)[C@H]3CC[C@@H]12 ?
inactive

Any idea what this test logged for CCOC(=O)OCC1OC(C#Cc2ccc(F)cc2F)C=CC1OC(=O)OCC (stereo not drawn) ?
inactive

GET /call?item= CCOC(=O)OCC1OC(c2ccccc2)C=CC1Oc1ccc(F)cc1C (stereo not drawn) returns the recorded outcome of this test.
inactive

Short answer needed: outcome of this test for CC12C=C(/C=C/c3ccc(F)cc3)C(C)(C1)C(c1ccc(F)cc1)CC2=O (stereo not drawn) ?
inactive

Just curious, what result did COc1ccc(-c2ccccc2C2NC(C(=O)O)CCC2C)cc1 (stereo not drawn) get here?
inactive

###

ASSAY SYSTEM: Vitamin D3 receptor (Homo sapiens) (UniProt P11473)
Sequence (P11473 whole entry, looked up): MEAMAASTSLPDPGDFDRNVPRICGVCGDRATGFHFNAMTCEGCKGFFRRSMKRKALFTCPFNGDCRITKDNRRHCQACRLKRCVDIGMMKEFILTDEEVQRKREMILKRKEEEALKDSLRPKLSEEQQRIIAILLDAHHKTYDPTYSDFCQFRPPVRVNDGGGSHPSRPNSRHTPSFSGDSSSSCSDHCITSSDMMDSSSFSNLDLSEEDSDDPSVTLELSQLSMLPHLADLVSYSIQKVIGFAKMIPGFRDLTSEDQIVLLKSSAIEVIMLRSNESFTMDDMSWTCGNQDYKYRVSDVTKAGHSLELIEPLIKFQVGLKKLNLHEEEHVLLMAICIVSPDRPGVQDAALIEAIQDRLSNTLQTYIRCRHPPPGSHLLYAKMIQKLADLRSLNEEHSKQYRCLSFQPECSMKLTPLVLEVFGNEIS
ASSAY PROTOCOL: qHTS assay for small molecule antagonists of vitamin D receptor signaling (AID 588541)
ASSAY CONDITIONS: HEK293T VDR-UAS-bla, beta-lactamase ratio, antagonist mode; series mostly up to 76.7 µM
Records with an inconclusive call do not appear. The source made the active and inactive calls. Calls follow the shape of the full dose curve.
Please state which outcome applies, choosing from 1.0 (active), 0.0 (inactive)

Write down the call the test reported for this compound. Item: CCCCCCCC(=O)Oc1c(Br)cc(C#N)cc1Br
0.0

Status in this test for CCCCCCCCCCCCCCCO ?
0.0

Please indicate how the test categorized CCCC/C=C\CCCCCCCCCC=O .
0.0

Hello, I am checking results. What call was entered for CC(Cl)(Cl)C(=O)OCCOc1cc(Cl)c(Cl)cc1Cl ?
0.0

Per the assay record, what outcome was assigned to CCCCCCCCCCCCCc1ccccc1 ?
0.0

What did the test return for CCOC(=O)C1=NN(c2ccc(Cl)cc2Cl)C(C)(C(=O)OCC)C1 (stereo not drawn) ?
0.0

What is the recorded call for this compound in the test? NCCCCCCCCCCCC(=O)O
0.0

Given CCCCCCCCCCCO , state the outcome it received in this test.
0.0

What call does the record list for C/C=C/C/C=C\CCCCCCCCOC(C)=O ?
0.0

Outcome logged for CCCCCCCOC(=O)c1ccccc1C(=O)OCCCCCCC in this assay:
0.0

Fill in: this test's call for C[C@]12CC[C@@H]3c4ccc(O)cc4CC[C@H]3[C@@H]1CC[C@H]2O is ___
0.0

// param item: O=C(OCCOCCOC(=O)c1ccccc1)c1ccccc1 ; yields the recorded call
0.0

Please share the test call associated with CCCCOC(=O)c1ccccc1 .
0.0

Assay outcome for NN(c1ccccc1)c1ccccc1 : what was it?
0.0

Dear colleague, could you share the recorded outcome for CC(=O)OC(C)(C)C1CC=C(C)CC1 (stereo not drawn) when you have a moment?
0.0

Query: recorded result category for O=C1CCCC/C=C/CCCCCCCCCO1 in this test
0.0

What did the test return for CO/N=C1\C[C@]2(C[C@@H]3C[C@@H](C/C=C(\C)C[C@@H](C)/C=C/C=C4\CO[C@@H]5[C@H](O)C(C)=C[C@@H](C(=O)O3)[C@]45O)O2)O[C@H](/C(C)=C/C(C)C)[C@H]1C ?
1.0

Please share the test call associated with COC(=O)CSc1cc(N=c2sc(=O)n3n2CCCC3)c(F)cc1Cl .
0.0

Per the assay record, what outcome was assigned to CC1(C)C(=O)N(Br)C(=O)N1Br ?
0.0

Please let me know the test result on file for CCCCCCCC[Si](OCC)(OCC)OCC .
0.0

# fetch the recorded call for C[N+](C)(C)CC(O)CCl (stereo not drawn) here
0.0

Look up the recorded call for C=Cc1ccc(P(c2ccccc2)c2ccccc2)cc1 in this test.
0.0

Any idea what this test logged for Cn1sccc1=O ?
0.0

Called result for CCCCCCCCCC[N+](C)(C)Cc1ccccc1
0.0

For O=C(Cl)c1ccc(C(=O)Cl)cc1 , which call appears in the assay record?
0.0

Fill in: this test's call for CC(C)(C)[C@H](O)[C@H](Cc1ccc(Cl)cc1)n1cncn1 is ___
0.0

Hello, I am checking results. What call was entered for C=CCCCCCCCCC=O ?
0.0

Status in this test for CCCCNS(=O)(=O)c1ccccc1 ?
0.0

Record lookup: outcome of this test for CCOC(=O)NCCOc1ccc(Oc2ccccc2)cc1 ?
0.0

In this assay, the call recorded for C=CC(=O)OCC(C)OCC(C)OCC(C)OC(=O)C=C (stereo not drawn) was what?
0.0

Please indicate how the test categorized C=C(C)C(=O)OCCN(C)C .
0.0

Test call for this compound, please: BrC1CCC(Br)C(Br)CCC(Br)C(Br)CCC1Br (stereo not drawn)
0.0

Query: recorded result category for Cn1c(=O)[nH]c(=O)n(C2CCC(O)CC2)c1=O (stereo not drawn) in this test
0.0

Can you look up the reported call for CCCCCCCC[Si](Cl)(Cl)Cl for me?
0.0

Fill in: this test's call for CCCC/C=C\CCCCCCCCO is ___
0.0

Name the outcome recorded for CO[Si](CCCOCC1CO1)(OC)OC (stereo not drawn) in the assay.
0.0

Tell me the assay call for CNc1nc(=O)n(C2CCCCC2)c(=O)n1C please.
0.0

Answer briefly: the call reported for CCCCOCCOCCO in this assay.
0.0

# fetch the recorded call for COC(=O)c1ccc(CNS(C)(=O)=O)cc1S(=O)(=O)NC(=O)Nc1nc(OC)cc(OC)n1 here
0.0

What was the test verdict on CCCCCCCCCCCCCC(=O)OC ?
0.0

Please share the test call associated with COC(=O)c1ccccc1S(=O)(=O)NC(=O)Nc1nc(OC(F)F)cc(OC(F)F)n1 .
0.0

What classification did COCCO end up with in this test?
0.0

# fetch the recorded call for O=C(O)CN(CCO)CCN(CC(=O)O)CC(=O)O here
0.0

What outcome does the record of this test show for O=C=NC1CCC(CC2CCC(N=C=O)CC2)CC1 (stereo not drawn) ?
0.0

I would be grateful if you could indicate the recorded call for O=S(=O)(O)c1ccc(N=Nc2cc(S(=O)(=O)O)c3ccccc3c2O)c2ccccc12 .
0.0

Hi, do you know how Cc1ccc(C(=O)c2ccccc2)cc1 came out in this test?
0.0

Answer briefly: the call reported for CCCC[O][Al]([O]CCCC)[O]CCCC in this assay.
0.0

Identify the outcome logged in this assay for the compound shown: COc1cc(Cl)c(OC)cc1N
0.0

Given CC(C)OB(OC(C)C)OC(C)C , state the outcome it received in this test.
0.0

Recorded test call requested for CC(C)O.CC(C)O.CC(C)O.CC(C)O.[Ti]
0.0

Just curious, what result did CCCCCCCCCC(C)=O get here?
0.0

Can you look up the reported call for COC(=O)c1cccc(C)c1S(=O)(=O)NC(=O)Nc1nc(OCC(F)(F)F)nc(N(C)C)n1 for me?
0.0

Record lookup: outcome of this test for c1ccc(B(c2ccccc2)c2ccccc2)cc1 ?
0.0
